- run.description: in vivo
- experimental.parameters: male, beagle, dog, 26 mg/kg/day
Where a name gives a salt, the structure may show the parent alone.
measured.endpoint: AUC(0-t)

Please supply the value of reported AUC(0-t) for the item COc1cccc([C@]2(O)CCCC[C@H]2CN(C)C)c1 (racemic) [Tramadol, hydrochloride]
1210 ng·h/mL

----------
- run.description: in vivo
- experimental.parameters: male, beagle, dog, 26 mg/kg/day
Structures can show the parent of a compound that is named as a salt.
measured.endpoint: Cmax

// Input: COc1cccc([C@]2(O)CCCC[C@H]2CN(C)C)c1 (racemic) [Tramadol, hydrochloride] . Output its Cmax only.
1280 ng/mL

Source listed as patent US10406122B2.
